# Tested on: HCV replicon HuH5-2
# Method description: Cellular HCV-RNA replication assay (replicon system), luciferase reporter, with Alamar Blue cytotoxicity test
# Format: cell-based, hepatitis C virus
# Run parameters: CC50 from Alamar Blue fluorescence, EC50 from luciferase activity, HuH5-2 cells
# Excerpt: 1. Measurement of the Activity of Substances in a Cellular HCV-RNA Replication Assay (“Replicon System”) Hepatitis C cannot as of yet be replicated reproducibly with high titres in cell culture. The activity of substances is therefore detected in the so-called replicon system. […] Depending on the reading or assay method used, transparent or white assay plates coated for cell culture are used. […]
Measure name: SI (selectivity index) = CC50/EC50

Below, each entry is followed by its recorded SI (selectivity index) = CC50/EC50 result.
Looking up C[C@H]1CC[C@H](C(=O)N(c2sc(-c3ccccc3)cc2C(=O)O)C2CCOCC2)CC1 , I see its SI (selectivity index) = CC50/EC50 listed as >100

Briefly, SI (selectivity index) = CC50/EC50 measured for CC(C)N(c1sc(-c2ccc(F)cc2)cc1C(=O)O)C(=O)[C@H]1CC[C@H](C)CC1 : >100

Query COCC(C)N(C(=O)C1CCC(C)CC1)c1sc(-c2ccccc2)cc1C(=O)O (stereo not shown) yields SI (selectivity index) = CC50/EC50 of >63

Moving on to the next compound.
Quick note, SI (selectivity index) = CC50/EC50 for CC(C)N(c1sc(-c2cccnc2)cc1C(=O)O)C(=O)[C@H]1CC[C@H](C)CC1 landed at >38
